system: LOX IMVI melanoma; experiment: NCI-60 one-dose screen, 48 h; details: 10 µM
This is part of a sample that, as a whole, favours compounds with a hit. Of some 83,000 tested, about 20% had one in any assay. Activity calls are given as the source filed them. How the source made its calls: active means growth percent below 10; inactive means the rest.
Classes used: active, inactive

COc1ccc(CN2[C@@H](C(=O)NCc3ccc(C(=O)NO)cc3)Cc3c([nH]c4ccccc34)[C@@H]2C)cc1 ... active
O=C(CSc1nnc(-c2ccc3nc(-c4ccc(Cl)cc4)[nH]c3c2)o1)Nc1ccc(Cl)cc1 ... active
O=C(CSc1nnc(-c2c[nH]c3ccccc23)n1-c1ccccc1)c1ccc(Cl)cc1 ... inactive
Cc1cc(=O)oc2cc(OCCCCOc3ccc(/C=C/C(=O)Nc4ccccc4[N+](=O)[O-])cc3)ccc12 ... inactive
C#CCNC(=O)CCC(=O)OC[C@]12CC[C@@H](C(=C)C)[C@@H]1C1CC[C@@H]3[C@@]4(C)CCCNC(C)(C)[C@@H]4CC[C@@]3(C)[C@]1(C)CC2 (stereo partly drawn) ... active
CCCn1c(=O)c2[nH]c(-c3ccc(OCc4nc5ccc(C)cc5[nH]4)cc3)nc2n(CCC)c1=O ... active
O=C1Nc2ccc(F)cc2/C1=C/c1cccc(OCc2ccccn2)c1 ... active
CN(C)c1nc(NCCNS(=O)(=O)c2ccc(C(=O)/C=C/c3ccccc3)cc2)nc(Nc2ccc(F)cc2)n1 ... active
COc1ccc2nc(Cl)c(-c3cc(-c4ccccc4)nc(=S)[nH]3)cc2c1 ... inactive
CN1CCN(c2ccc(Nc3nc(NCCCNC(=O)c4ccccc4)c4sccc4n3)cc2)CC1 ... inactive
C/C(=C\CSc1ccccc1C(=O)O)CCCC(C)CCCC(C)CCCC(C)C (stereo not drawn) ... inactive
O=C1CCC(N2Cc3cc(NC(=O)COc4ccccc4)ccc3C2=O)C(=O)N1 (stereo not drawn) ... inactive
COc1ccc(C(=O)/C=C/c2cc(F)cc(C(F)(F)F)c2)cc1S(N)(=O)=O ... active
CCCn1c(=O)c2[nH]c(-c3ccc(OCc4nc5ccccc5[nH]4)cc3)nc2n(CCC)c1=O ... active
N#Cc1ccc(-c2nn(-c3ccc(C(=O)O)cc3)cc2CNc2cc(Cl)cc(Cl)c2)cc1 ... active
Cc1cc2c(c(O)c1Br)-c1ncoc1C(=O)[C@]1(C)CC[C@H](C(C)C)[C@H]21 ... inactive
Cc1cc(C)nc(NS(=O)(=O)c2ccc(N/C(N)=N/c3nccc(-c4ccccc4)n3)cc2)n1 ... inactive
CC(=O)OC[C@@]1(C)C2CC[C@]3(C)C(CC=C4C5CC(C)(C)CC[C@]5(C(=O)Nc5ccccc5)CC[C@]43C)[C@@]2(C)C[C@@H](OC(C)=O)[C@@H]1OC(C)=O (stereo partly drawn) ... active

----------
system: KM12 colon; assay: NCI-60 one-dose screen, 48 h (100 = growth as untreated, 0 = no growth, -100 = all killed); conditions: 10 µM
The panel holds about 83,000 compounds, 20% with a hit somewhere; the sample as a whole holds those more often.
observation type: growth (%)

COc1cccc(-c2ccnc(/N=C(\N)Nc3ccc(S(=O)(=O)Nc4nc(C)cc(C)n4)cc3)n2)c1 ... 98
COc1ccc2c3nc4cc(C)c(C)cc4nc3n(CCN(C)C)c2c1 ... -18
O=C(/C=C/Nc1ccc(F)cc1F)c1ccc2c(c1)Nc1ccccc1S2 ... 51.6
